Each item that follows carries a reported pKi.
EXPERIMENTAL TARGET: HCV NS3/NS4a serine protease (Hepatitis C virus genotype 1b, UniProt P26663)
Construct: amino terminus of the NS3 protease domain (amino acids 3-181) with a tetrapeptide linker; made in house; host or cells: E. coli
Sequence (P26663 1013-1207, looked up, natural form): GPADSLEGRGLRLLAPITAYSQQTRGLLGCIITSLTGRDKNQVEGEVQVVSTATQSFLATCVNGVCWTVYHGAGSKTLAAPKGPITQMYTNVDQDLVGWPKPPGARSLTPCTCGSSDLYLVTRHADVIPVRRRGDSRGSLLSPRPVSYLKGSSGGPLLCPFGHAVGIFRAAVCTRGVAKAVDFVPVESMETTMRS
METHOD SUMMARY: Spectrophotometric assay for HCV protease inhibitory activity (chromogenic ester substrates)
Assay type: biochemical, hepatitis C virus (strain 1b)
CONDITION SUMMARY: Ki, Table 3; rating; single chain NS4A21-32-GSGS-NS3 3-181 protease, 30° C., pH 6.5
pKi: −log10 of the molar value.

Below are worked cases with known answers.
>  <COMPOUND>
COc1ccc(Br)cc1CCNC(=O)[C@H](CC(F)F)NC(=O)[C@@H]1[C@@H]2[C@H](CN1C(=O)[C@@H](NC(=O)N[C@H](CN(C)S(C)(=O)=O)C(C)(C)C)C(C)(C)C)C2(C)C [Example 300]

>  <pKi>
> 7.00

$$$$
>  <COMPOUND>
CN(C)CC(C)(C)CNC(=O)[C@H](CC(F)F)NC(=O)[C@@H]1[C@@H]2[C@H](CN1C(=O)[C@@H](NC(=O)N[C@H](CN(C)S(C)(=O)=O)C(C)(C)C)C(C)(C)C)C2(C)C [Example 241]

>  <pKi>
< 6.30

$$$$
>  <COMPOUND>
CN(C[C@@H](NC(=O)N[C@H](C(=O)N1C[C@H]2[C@@H]([C@H]1C(=O)N[C@@H](CC(F)F)C(=O)NC1CCN(Cc3ccccc3)CC1)C2(C)C)C(C)(C)C)C(C)(C)C)S(C)(=O)=O [Example 243]

>  <pKi>
< 6.30

$$$$
>  <COMPOUND>
Cc1cccc(CCNC(=O)[C@H](CC(F)F)NC(=O)[C@@H]2[C@@H]3[C@H](CN2C(=O)[C@@H](NC(=O)N[C@H](CN(C)S(C)(=O)=O)C(C)(C)C)C(C)(C)C)C3(C)C)c1 [Example 260]

>  <pKi>
> 7.00

$$$$

Reported pKi ( CC(C)CCNC(=O)[C@H](CC(F)F)NC(=O)[C@@H]1[C@@H]2[C@H](CN1C(=O)[C@@H](NC(=O)N[C@H](CN(C)S(C)(=O)=O)C(C)(C)C)C(C)(C)C)C2(C)C [Example 208] ) = < 6.30
